Ref: patent US6761885B1

System: Lactobacillus plantarum LB931
Assay: MIC of antibiotics by E-test
Format: cell-based
Conditions: Lactiplantibacillus plantarum, LB931; E-test; read-out: MIC
Protocol: MIC values of Lactobacillus plantarum LB931 were determined using E-test (Brown et al. J Antimicrob Chemother 1991;27:185-190).
Reported MIC is given for each of the following molecules.
property.name: MIC (µg/mL)

>>> endpoint_result("CC1(C)S[C@@H]2[C@H](NC(=O)Cc3ccccc3)C(=O)N2[C@H]1C(=O)O [Benzylpenicillin]")
0.5
>>> endpoint_result("CC1(C)S[C@@H]2[C@H](NC(=O)[C@H](N)c3ccccc3)C(=O)N2[C@H]1C(=O)O [Ampicillin]")
0.19
>>> endpoint_result("C[C@@H](O)[C@H]1C(=O)N2C(C(=O)O)=C(SCCN=CN)C[C@H]12 [Imipenem]")
0.016
>>> endpoint_result("CO/N=C(\\C(=O)N[C@@H]1C(=O)N2C(C(=O)O)=C(COC(N)=O)CS[C@H]12)c1ccco1 [Cefuroxime]")
0.38
>>> endpoint_result("CO/N=C(\\C(=O)N[C@@H]1C(=O)N2C(C(=O)O)=C(COC(C)=O)CS[C@H]12)c1csc(N)n1 [Cefotaxime]")
0.094
>>> endpoint_result("CC[C@H]1OC(=O)[C@H](C)[C@@H](O[C@H]2C[C@@](C)(OC)[C@@H](O)[C@H](C)O2)[C@H](C)[C@@H](O[C@@H]2O[C@H](C)C[C@H](N(C)C)[C@H]2O)[C@](C)(O)C[C@@H](C)C(=O)[C@H](C)[C@@H](O)[C@]1(C)O [Erythromycin]")
0.25
